# Assay Explanation: The EC50 was calculated as the concentration of drug that increased the percentage of formazan production in drug treated, virus infected cells to 50% of that produced by drug free uninfected cells on serotype 1A.
pEC50: −log10 of the molar value.
Listed next: entries and their corresponding pEC50.
Readout: pEC50

{"Chemical Smiles": "CCOC(=O)/C=C/[C@H](CCC(N)=O)NC(=O)[C@@H](CC(=O)[C@@H](NC(=O)SC1CCCC1)C(C)(C)C)Cc1ccccc1", "Readout Number": 6.37}
{"Chemical Smiles": "CCOC(=O)/C=C/[C@H](CCC(N)=O)NC(=O)[C@@H](CC(=O)[C@@H](NC(=O)SC1CCCC1)C(C)C)Cc1ccc(F)cc1", "Readout Number": 6.77}
{"Chemical Smiles": "CCOC(=O)/C=C/[C@H](CCC(N)=O)NC(=O)[C@@H](CC(=O)[C@@H](NC(=O)SC1CCCC1)C(C)C)Cc1ccc(C)cc1", "Readout Number": 6.80}
{"Chemical Smiles": "CCOC(=O)/C=C/[C@H](CCC(N)=O)NC(=O)[C@@H](CC(=O)[C@H](CC(C)C)NC(=O)SC1CCCC1)Cc1ccc(F)cc1", "Readout Number": 6.22}
